Target: activated human complement factor C1s (Homo sapiens, UniProt P09871)
Construct: purchased CalbioChem 204879
Sequence (P09871 438-688 limits assumed): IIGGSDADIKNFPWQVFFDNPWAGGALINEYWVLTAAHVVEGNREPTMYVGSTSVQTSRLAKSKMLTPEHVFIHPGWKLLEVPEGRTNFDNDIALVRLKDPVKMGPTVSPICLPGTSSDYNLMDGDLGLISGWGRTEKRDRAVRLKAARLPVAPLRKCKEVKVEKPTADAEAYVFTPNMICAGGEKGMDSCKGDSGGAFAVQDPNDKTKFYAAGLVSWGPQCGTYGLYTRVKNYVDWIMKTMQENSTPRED
Sequence (P09871 16-437 partner limits assumed): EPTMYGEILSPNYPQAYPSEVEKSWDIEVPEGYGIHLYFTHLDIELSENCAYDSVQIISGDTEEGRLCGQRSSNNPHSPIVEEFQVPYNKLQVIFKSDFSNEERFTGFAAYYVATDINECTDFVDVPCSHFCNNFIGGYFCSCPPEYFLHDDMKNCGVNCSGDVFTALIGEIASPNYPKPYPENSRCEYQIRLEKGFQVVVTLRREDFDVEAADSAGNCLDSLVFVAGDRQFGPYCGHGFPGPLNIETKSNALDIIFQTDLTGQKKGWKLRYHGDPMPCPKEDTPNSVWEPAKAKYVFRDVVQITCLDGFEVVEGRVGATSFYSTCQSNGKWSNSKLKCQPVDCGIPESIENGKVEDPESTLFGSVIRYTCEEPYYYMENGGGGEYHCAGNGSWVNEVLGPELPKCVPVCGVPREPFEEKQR
Assay: Fluorescent complement factor C1s inhibitor screening assay
Assay type: biochemical
Details: second round validation; mean of triplicates; maximum tested 50 μM; * = weak activity at 50 μM but inactive under stated criteria; read-out: Experimental IC50
outcome_measure: IC50

Completed entries (count: 2):
CCOC(=O)c1cccc(OC(=O)c2ccco2)c1 = > 50 µM
O=C(c1ccc(Br)cc1)n1nnc2ccccc21 = > 50 µM

Now for a further compound.
IC50 for O=C(c1ccco1)n1nnc2ccccc21 is > 50 µM
